The origin of these recorded values is paper PMC11596630.

Molecular target: purified human BChE (Homo sapiens)
Construct: gift of Dr Florian Nachon, Armed Forces Biomedical Research Institute, Brétigny-sur-Orge, France
Sequence (P06276 29-602): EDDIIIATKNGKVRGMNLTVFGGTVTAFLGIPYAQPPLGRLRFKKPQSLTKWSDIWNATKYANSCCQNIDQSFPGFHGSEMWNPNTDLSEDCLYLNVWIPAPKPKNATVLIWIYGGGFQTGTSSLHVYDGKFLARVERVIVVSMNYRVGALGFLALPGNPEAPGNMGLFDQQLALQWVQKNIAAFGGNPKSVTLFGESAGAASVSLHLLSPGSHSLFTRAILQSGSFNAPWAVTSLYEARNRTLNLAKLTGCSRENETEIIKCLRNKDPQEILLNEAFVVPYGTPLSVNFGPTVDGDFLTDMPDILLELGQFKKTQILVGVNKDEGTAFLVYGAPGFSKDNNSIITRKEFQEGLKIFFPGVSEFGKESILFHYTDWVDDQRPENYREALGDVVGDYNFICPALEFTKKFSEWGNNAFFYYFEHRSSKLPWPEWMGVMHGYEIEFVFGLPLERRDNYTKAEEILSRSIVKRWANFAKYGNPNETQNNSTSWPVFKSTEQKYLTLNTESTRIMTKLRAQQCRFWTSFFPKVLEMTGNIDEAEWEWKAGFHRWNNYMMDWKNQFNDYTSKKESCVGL
Assay: biochemical
Format: biochemical
Conditions: human BChE; Ki ± SE, at least three experiments; ATCh substrate; read-out: Ki BChE
pKi: −log10 of the molar value.
I would appreciate it if you labelled entries condition met when pKi is 5 or higher, otherwise condition not met.

CCN(CC)Cc1cc(Nc2cc(C(F)(F)F)nc3ccccc23)ccc1O [Compound 11]
condition met
CCN(CC)Cc1cc(Nc2ccnc3cc([N+](=O)[O-])ccc23)ccc1O [Compound 4]
condition not met
CCN(CC)Cc1cc(Nc2ccnc3c(C(F)(F)F)cccc23)ccc1O [Compound 10]
condition not met
CCN(CC)Cc1cc(Nc2ccnc3c(F)cccc23)ccc1O [Compound 8]
condition met
CCN(CC)Cc1cc(Nc2ccnc3ccccc23)ccc1O [Compound 6]
condition met
CCN(CC)Cc1cc(Nc2ccnc3cccc(C(=O)O)c23)ccc1O [Compound 13]
condition not met
CCN(CCO)Cc1cc(Nc2ccnc3cc(Cl)ccc23)ccc1O [Compound 14]
condition met
